Task for the reader: assign each of the following compounds its reported TGI.
- System: NCI-H23 lung
- TEST DESCRIPTION: NCI tumour cell line growth inhibition, 48 h

The compound c1ccc(CSSSCc2ccccc2)cc1 , tested on NCI-H23 lung, showed TGI of > 48.5 µM

The compound CN(C)CCCCC1CCN(CC(=O)N2c3ccccc3NC(=O)c3ccccc32)CC1 , tested on NCI-H23 lung, showed TGI of > 100 µM

The compound CCn1ncc(Oc2c(Cl)cc(N)cc2Cl)c(Cl)c1=O , tested on NCI-H23 lung, showed TGI of > 100 µM

The compound FC(F)(F)c1cccc2ns[s+]c12 , tested on NCI-H23 lung, showed TGI of > 100 µM

The compound O=C1CCC(c2nc3cc(Cl)ccc3o2)C(=O)N1 (stereo unspecified) , tested on NCI-H23 lung, showed TGI of > 100 µM

The compound CCOC(=O)/C=C(/OCC)[C@@H]1C(C(=O)c2ccc(Cl)cc2)[C@H]1/C(=C\C(=O)OCC)OCC (stereo partly specified) , tested on NCI-H23 lung, showed TGI of > 100 µM

The compound COC(=O)c1ccc(NC(=O)c2cc3c(cc2Br)OCO3)o1 , tested on NCI-H23 lung, showed TGI of > 100 µM

The compound CC(C)OP(=O)(c1ccccc1)c1ccc2c(c1)OCCOCCOCCOCCO2 (stereo unspecified) , tested on NCI-H23 lung, showed TGI of > 100 µM

The compound COc1ccc(OC)c(NC(=O)c2c(Cl)c(Cl)c(Cl)c(Cl)c2-c2nc3ccccc3[nH]2)c1 , tested on NCI-H23 lung, showed TGI of > 100 µM

The compound CC/C=C\C/C=C\C[C@H]1C/C=C2/C(=O)C=C[C@@H]2C/C=C\CCC(=O)O1 , tested on NCI-H23 lung, showed TGI of 2.79 µM

The compound O=[N+]([O-])c1ccc(N=Nc2c(O)[nH]c3ccc(Br)cc23)cc1 , tested on NCI-H23 lung, showed TGI of > 51.3 µM

The compound COC(=O)CCC1(NS(=O)(=O)c2ccc(C)cc2)CCC(C(C)(C)C)CC1 (stereo unspecified) , tested on NCI-H23 lung, showed TGI of 29.2 µM

The compound CC1(C(=O)O)CCC(C(=O)O)C(C)(C)O1 (stereo unspecified) , tested on NCI-H23 lung, showed TGI of > 100 µM

The compound CCc1nc(N)nc(N)c1-c1ccc(Cc2ccccc2)c([N+](=O)[O-])c1 , tested on NCI-H23 lung, showed TGI of > 60.4 µM

The compound Clc1ccc(CSC2=NCCN2)cc1Cl , tested on NCI-H23 lung, showed TGI of 35.8 µM

The compound CN(CCNC(=O)c1nn(-c2ccccc2)c2c1ccc1ccccc12)CCNC(=O)c1nn(-c2ccccc2)c2c1ccc1ccccc12 , tested on NCI-H23 lung, showed TGI of 6.78 µM

The compound COCOc1cc(OC)ccc1C/C=N/O , tested on NCI-H23 lung, showed TGI of > 100 µM

The compound O=C(CC(Cl)(Cl)C(Cl)(Cl)Cl)c1ccccc1 , tested on NCI-H23 lung, showed TGI of 20.5 µM

The compound COc1cc2c(c(OC)c1OC)-c1ccc(SC)c(=O)cc1[C@@H](OC(=O)c1ccncc1)CC2 , tested on NCI-H23 lung, showed TGI of > 100 µM

The compound CCC1(O)C(=O)OCc2c1cc1n(c2=O)Cc2cc3ccc(CO)cc3nc2-1 (stereo unspecified) , tested on NCI-H23 lung, showed TGI of 10.2 µM

The compound COc1cc2c(cc1OCCCCCN1CCN(c3cc(=O)oc4ccccc34)CC1)N=C[C@@H]1CCCN1C2=O , tested on NCI-H23 lung, showed TGI of 1.1 µM

The compound N#Cc1ccc(Sc2ccccc2)cc1C#N , tested on NCI-H23 lung, showed TGI of > 100 µM

The compound Cc1c2cnccc2c(C)c2c1c1ccccc1n2CC1CO1 (stereo unspecified) , tested on NCI-H23 lung, showed TGI of 8.4 µM

The compound COC(=O)[C@]12CC[C@H]3CN(C(=O)OCc4ccccc4)[C@H]([C@H]31)[C@H](C(=O)OCC[Si](C)(C)C)N2S(=O)(=O)c1ccc(C)cc1 , tested on NCI-H23 lung, showed TGI of > 100 µM

The compound [N-]=[N+]=NCCCn1c2c(c3ccccc3c1=O)C(=O)c1cc(Br)ccc1-2 , tested on NCI-H23 lung, showed TGI of > 100 µM

The compound CCOC(=O)C1(c2ccccc2)CCCNCC1 (stereo unspecified) , tested on NCI-H23 lung, showed TGI of > 100 µM

The compound COc1ccc(Cc2nc3cc([N+](=O)[O-])ccc3n2C[C@@H]2CCCN3CCCCC23)cc1 (stereo partly specified) , tested on NCI-H23 lung, showed TGI of 87.2 µM

The compound NN/C(=N\S(=O)(=O)c1ccc(-c2ccccn2)s1)Nc1ccc(Cl)cc1 , tested on NCI-H23 lung, showed TGI of > 100 µM

The compound COC(=O)C1=C(c2cc(OC)c(OC)c(OC)c2)OC(c2ccc3c(c2)OCO3)C1 (stereo unspecified) , tested on NCI-H23 lung, showed TGI of 98.9 µM

The compound COC(=O)C(=O)C(C(=O)OC)C(=O)C(=O)Nc1ccccc1C(N)=O (stereo unspecified) , tested on NCI-H23 lung, showed TGI of > 100 µM

The compound c1cc2sc1CSCCSCCSC2 , tested on NCI-H23 lung, showed TGI of > 100 µM

The compound C=C(C)C(CC=C(C)C)Cc1c(O)cc(OC)c2c1OC(c1ccc(O)cc1O)C(O)C2=O (stereo unspecified) , tested on NCI-H23 lung, showed TGI of 33.6 µM

The compound CC(C)(C)C(=O)CC1(O)C=C(O)C(O)(CC(=O)C(C)(C)C)O1 (stereo unspecified) , tested on NCI-H23 lung, showed TGI of 88.7 µM

The compound c1ccc(CSc2nnc3c4c5c(sc4nc(-c4cccnc4)n23)CCCCCC5)cc1 , tested on NCI-H23 lung, showed TGI of 8.33 µM

The compound SCCCSCCSCCCSCCS , tested on NCI-H23 lung, showed TGI of > 100 µM

The compound COC1/C=C/C(C)C(OC)CC(O)/C=C/C(C)C(C(C)C(OC)C(C)CCC(=O)C(C)C(C/C=C/N(C)C=O)OC)OC(=O)/C=C/C=C(\C)CC(OC)CC2=CC(=O)O[C@@H](C(C)C(OC)C1)[C@H]2O (stereo partly specified) , tested on NCI-H23 lung, showed TGI of 1.06 µM

The compound O=C1CCC(C(=O)O)C2=C1CCCC2 (stereo unspecified) , tested on NCI-H23 lung, showed TGI of > 100 µM

The compound Cn1c(=O)c2c(ncn2Cc2ccc(O)c([N+](=O)[O-])c2)n(C)c1=O , tested on NCI-H23 lung, showed TGI of > 100 µM

The compound COc1cc2oc(-c3ccc4c(c3)OCO4)c(OC)c(=O)c2c(OC)c1OC , tested on NCI-H23 lung, showed TGI of > 100 µM

The compound CC1SC(c2ccc(Cl)c(Cl)c2)N(NC(=O)C(O)c2ccccc2)C1=O (stereo unspecified) , tested on NCI-H23 lung, showed TGI of > 100 µM

The compound [N-]=[N+]=Nc1ccc2c(c1)Sc1ccccc1N2CCCCN1CCN(Cc2ccc(C(=O)c3ccccc3)cc2)CC1 , tested on NCI-H23 lung, showed TGI of > 80.8 µM

Data provenance: PubChem BioAssay (NCI)
